What Papp at 60 min was measured for each of the following?
# TEST_METHOD_NOTES: in vitro
# APPLIED_CONDITIONS: male, human, in vitro apparent permeability Papp

**Q:** Looking for the measured Papp at 60 min of CCN1CCC[C@H]1CNC(=O)c1c(O)c(Cl)cc(Cl)c1OC [Raclopride] , can you help?
**A:** > 15 ×10⁻⁶ cm/s

**Q:** Return reported Papp at 60 min; argument: C[C@]12CC[C@@H]3c4ccc(O)cc4CC[C@H]3[C@@H]1CC[C@@H]2O
**A:** > 15 ×10⁻⁶ cm/s

**Q:** Given the compound CC1(C)[C@H](C(=O)O[C@H](C#N)c2cccc(Oc3ccccc3)c2)[C@@H]1C=C(Br)Br , what is its reported Papp at 60 min?
**A:** 0.979 ×10⁻⁶ cm/s

---

Record form. Attribute: Papp at 60 min. Fill in for each entry.
# TEST_METHOD_NOTES: Permeability testing (apparent permeability Papp) in tricellular hiPSC-derived BBB model, 96-transwell
# APPLIED_CONDITIONS: male, human
Please reply with the bare figure in ×10⁻⁶ cm/s and do not write the unit itself.

**Q:** Query (molecule): C#Cc1cccc(Nc2ncnc3cc(OCCOC)c(OCCOC)cc23)c1 [Erlotinib] ; field requested: Papp at 60 min
**A:** 12.1

**Q:** State the recorded Papp at 60 min for this entry: CN(C)C(=O)C(CCN1CCC(O)(c2ccc(Cl)cc2)CC1)(c1ccccc1)c1ccccc1 [Loperamide]
**A:** 6.75

---

# TEST_METHOD_NOTES: in vitro
# APPLIED_CONDITIONS: human, In vitro hiPSC-derived blood-brain barrier model apparent permeability (Papp)
So I've got a bunch of compounds here, and I need their Papp at 60 min values.
Reply with just the number (in ×10⁻⁶ cm/s).

**Q:** What Papp at 60 min value was documented for this compound, CCN1CCC[C@H]1CNC(=O)c1c(O)c(Cl)cc(Cl)c1OC [Raclopride] ?
**A:** 16.8

**Q:** Recorded Papp at 60 min for C[C@]12CC[C@@H]3c4ccc(O)cc4CC[C@H]3[C@@H]1CC[C@@H]2O , please?
**A:** 16.9
